Just for reference, ChEMBL document CHEMBL4334499 is where these values come from.

Assay: Selectivity index, ratio of CC50 for cytotoxicity in mouse NIH/3T3 cells assessed as reduction in cell viability incubated for 12 hrs by MTT assay to EC50 for antiviral activity against Influenza A virus (A/California/04/2009(H1N1)) ATCC VR-1737 infected in MDCK cells assessed as reduction in virus-induced cytopathic effect incubated for 48 hrs by Cell-titer-Glo luminescence assay
Format: toxicity, cell-based
Conditions: read-out: Ratio CC50/EC50
Reported values of selectivity ratio at 12 h for individual entries

Previously resolved entries follow.
INSERT INTO results (item_smiles, result) VALUES
  ('Cc1cc(-c2nnn[nH]2)ccc1-c1cc(=O)c(O)c(C(=O)O)[nH]1', '35 to 75'),
  ('O=C(O)c1[nH]c(-c2ccc(-c3nnn[nH]3)cc2)cc(=O)c1O', '> 100'),
  ('O=C(O)c1[nH]c(-c2ccc(-c3nnn[nH]3)cc2C(F)(F)F)cc(=O)c1O', '35 to 75'),
  ('O=C(O)/C(O)=C/C(=O)C1(Cc2ccc(Cl)cc2)CCN(Cc2ccccc2)CC1', '35 to 75');

Okay, next one:
Query :: I have this molecule here, O=C(O)c1[nH]c(-c2ccccc2C(F)(F)F)cc(=O)c1O , and I need its recorded selectivity ratio at 12 h.
Result :: 35 to 75
